# tgt: T1, recombinant human RANTES (huRANTES, Peprotech) (human, UniProt P13501 24-91)
# T1 sequence: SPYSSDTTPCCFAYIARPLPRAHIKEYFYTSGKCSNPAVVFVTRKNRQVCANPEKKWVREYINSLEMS
# assay_procedure: cell-based or functional assay
Listing of recorded Chemotaxis IC50 (nM), 0.2 nM huRANTES; L1.2-hCCR5 cells; IgG1 format by entry.
Please give a number only; it is taken to be in nM.

Consider the following illustrative entries.
binder: 6A8 antibody, IgG1 format (antibody, V domains shown) VH: QVQLVQSGAEVKKPGASVKVSCKVSGYTLNDFAMHWVRQAPGKGLEWMGGYVPEDGDTIYAQKFQGRVTMTEDTSTDTAYMELSSLRSEDTAVYYCATDPLYPPGLQPWGQGTTVTVSS VL: SYVLTQPPSVSVAPGQTARITCGGNNIESKSVHWYQQKPGQAPVLVVYDDSDRPSGIPERFSGSNSGNTATLTISRVEAGDEADYYCQVWDSNTDHWVFGGGTKVTVL
obs_value: 0.31
--
binder: 3E7 antibody, IgG1 format (antibody, V domains shown) VH: QVQLVQSGAEVKKPGASVKVSCKVSGYTLNDFAMHWVRQAPGKGLEWMGGYVPEDGDTIYAQKFQGRVTMTEDTSTDTAYMELSSLRSEDTAVYYCATDPLYPPGLSPWGQGTTVTVSS VL: SYVLTQPPSVSVAPGQTARITCGGNNIESKSVHWYQQKPGQAPVLVVYDDSDRPSGIPERFSGSNSGNTATLTISRVEAGDEADYYCQVWDSNTDHWVFGGGTKVTVL
obs_value: 0.25

Okay, now this binder:
Query C8 antibody, IgG1 format (antibody, V domains shown) VH: QVQLVESGGGVVQPGRSLRLSCAASGFTFSSYAMHWVRQAPGKGLEWVAVISYDGSNKYYADSVKGRFTISRDNSKNTLYLQMNSLRAEDTAVYYCARETFPHYYYYYMDVWGRGTLVTVSS VL: SYVLTQPPSVSVAPGQTARITCEGDDTDIGTVNWYQQKPGQAPVLVISEDGYRPSGIPERFSGSNSGNTATLTISRVEAGDEADYYCQFWDVDSDHPVFGGGTQLTVLG yields Chemotaxis IC50 (nM), 0.2 nM huRANTES; L1.2-hCCR5 cells; IgG1 format of 0.49
